Please provide measured inhibition at 10 µM for the entries that follow.
- Tested on: MIA PaCa-2 pancreatic cancer cell line
- assay.method.text: Cell proliferation assay (DAPI)
- Assay type: cell-based
- condition.parameters: Homo sapiens; 10 μM, MIA PaCa-2 (Table 5A); read-out: % Inhibition of cell proliferation, MIA PaCa-2 % inh

molecule	inhibition at 10 µM
COc1cccc(-c2sc3nc(-c4nccn4C)nc(NC4CCC(OC)C4)c3c2C)c1F (stereo not shown) [drawing 628]	76 to 100%
CO[C@H]1C[C@@H](Nc2nc(-c3nccn3C)nc3sc(-c4cnn(C)c4)c(-c4ccccc4)c23)C1 [drawing 627]	76 to 100%
CO[C@H]1C[C@@H](Nc2nc(-c3nccn3C)nc3sc(C(=O)N4CCOCC4)c(-c4ccccc4)c23)C1 [drawing 657]	26 to 50%

Give me measured inhibition at 10 µM, please, for this molecule: CO[C@H]1CC[C@@H](Nc2nc(-c3nccn3C)nc3sc(C(=O)N4CCOCC4)c(-c4ccccc4)c23)C1 [drawing 662]
51 to 75%
